# TESTED_TARGET: SARM1 TIR domain (bacterial lysate) (Homo sapiens, UniProt Q6SZW1)
# Sequence (Q6SZW1 561-724): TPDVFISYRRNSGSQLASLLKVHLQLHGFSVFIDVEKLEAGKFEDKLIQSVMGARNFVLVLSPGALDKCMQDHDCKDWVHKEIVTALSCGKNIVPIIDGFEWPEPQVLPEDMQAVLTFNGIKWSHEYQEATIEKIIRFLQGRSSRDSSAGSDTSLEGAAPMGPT
# Format: biochemical
# ASSAY_CONDITIONS: bacterially expressed TIR domain (300 nM) lysate, ENAD 0-400 μM

| COMPOUND | UNITS | Ki |
| --- | --- | --- |
| [Cl-].[Cl-].[Zn+2] [Zinc Chloride, Zinc chloride] | µM | 3.3 |
